Reported MAX(MFI) values for the following binders.
Assayed System: T1, cynomolgus ROR1 (cynoROR1) on CHO-K1 cells (cynomolgus, UniProt A0A2K5WTX7 30-937)
T1 construct: whole, on cells; also called CHO-K1-cynoROR1; CHO-K1-cyROR1
Method: FACS, CHO-K1-cynoROR1 cells
Write down the numeric answer in MFI and omit the unit.

These recorded examples may help you get a feel for the data.
{"columns": ["Binder", "Observed"],
 "data": [
  ["PR001366 (antibody, V domains shown, fully human IgG1, kappa) VH: QVQLVESGGGVVQPGRSLRLSCTASGFTFSSYGMHWVRQAPGKGLEWVAVKWYDGISQNFADSVKGRFTISRDNSKNTLYLQMNSLRAEDTAVYYCARDLARSFDIWGRGTLVTVSS VL: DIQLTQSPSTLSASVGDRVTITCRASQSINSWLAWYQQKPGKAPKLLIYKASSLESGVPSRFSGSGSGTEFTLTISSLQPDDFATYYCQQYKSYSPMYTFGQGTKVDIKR", 23300],
  ["PR001368 (antibody, V domains shown, fully human IgG1, kappa) VH: QVQLVESGGGVVQPGRSLRLSCAASGFTFSTYGMHWVRQAPGKGLEWVAVIWYDGSDTDYADSVKGRFTISRDTSKNTLYLQMNSLRAEDTAVYYCAREQARSFDLWGRGTLVTVSS VL: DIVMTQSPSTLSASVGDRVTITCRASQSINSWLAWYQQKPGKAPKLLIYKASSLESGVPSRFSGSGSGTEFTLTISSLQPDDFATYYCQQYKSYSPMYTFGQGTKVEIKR", 27800]
]}

API: the following record is the query input.
Ask: Tell me the measured MAX(MFI) of PR001367 (antibody, human IgG1, kappa, V domains shown, fully human IgG1, kappa) VH: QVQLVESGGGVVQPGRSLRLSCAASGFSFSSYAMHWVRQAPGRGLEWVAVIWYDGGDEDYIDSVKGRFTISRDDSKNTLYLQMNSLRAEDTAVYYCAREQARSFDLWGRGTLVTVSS VL: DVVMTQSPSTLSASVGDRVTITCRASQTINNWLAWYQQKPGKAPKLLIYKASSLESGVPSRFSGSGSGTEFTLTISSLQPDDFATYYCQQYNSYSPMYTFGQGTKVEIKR , please.
Reply: 21200
